Every entry's value here was drawn from patent US10005829B2.

The following binders are listed with their measured hAPJ Ca^2+ Flux EC50 values.
- assayed system: T1, APJ receptor (human, UniProt P35414 1-380)
- T1 sequence (looked up): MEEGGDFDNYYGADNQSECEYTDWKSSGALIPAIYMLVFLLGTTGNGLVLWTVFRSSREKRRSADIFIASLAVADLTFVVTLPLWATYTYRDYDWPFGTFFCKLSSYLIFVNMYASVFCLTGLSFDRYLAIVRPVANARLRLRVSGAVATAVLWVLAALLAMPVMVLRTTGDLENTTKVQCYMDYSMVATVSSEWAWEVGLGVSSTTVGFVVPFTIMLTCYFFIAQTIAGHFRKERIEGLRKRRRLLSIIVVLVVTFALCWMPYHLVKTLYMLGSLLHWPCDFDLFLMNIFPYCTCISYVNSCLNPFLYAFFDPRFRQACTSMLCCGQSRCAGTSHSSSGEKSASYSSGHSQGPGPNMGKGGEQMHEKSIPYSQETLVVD
- protocol text: cell-based or functional assay
[ ]: non-standard residue; d: D form. 2Nal = N[C@@H](Cc1ccc2ccccc2c1)C(=O)O; pGlu = O=C1CC[C@@H](C(=O)O)N1; dNle = CCCC[C@@H](N)C(=O)O; Aib = CC(C)(N)C(=O)O

Past entries and their recorded results:
binder	hAPJ Ca^2+ Flux EC50
ERPRLAHKGPLA (pE at 1; D-Ala at 6; D-Nle at 11; D-Ala at 12; C-terminal NH(Phenethyl) amide) [pE-R-P-R-L-a-H-K-G-P-nle-a-NH(Phenethyl)]	16.2 nM
[pGlu]RPRL[dL]HKGP[dNle][dA][dF]-OH (SMILES CCCC[C@@H](NC(=O)[C@@H]1CCCN1C(=O)CNC(=O)[C@H](CCCCN)NC(=O)[C@H](Cc1c[nH]cn1)NC(=O)[C@@H](CC(C)C)NC(=O)[C@H](CC(C)C)NC(=O)[C@H](CCCNC(=N)N)NC(=O)[C@@H]1CCCN1C(=O)[C@H](CCCNC(=N)N)NC(=O)[C@@H]1CCC(=O)N1)C(=O)N[C@H](C)C(=O)N[C@H](Cc1ccccc1)C(=O)O) [pE-R-P-R-L-(D-Leu)-H-K-G-P-nle-a-f-OH]	155 nM
[pGlu]RPRL[dA]FKGP[dNle][dA][dF]-OH (SMILES CCCC[C@@H](NC(=O)[C@@H]1CCCN1C(=O)CNC(=O)[C@H](CCCCN)NC(=O)[C@H](Cc1ccccc1)NC(=O)[C@@H](C)NC(=O)[C@H](CC(C)C)NC(=O)[C@H](CCCNC(=N)N)NC(=O)[C@@H]1CCCN1C(=O)[C@H](CCCNC(=N)N)NC(=O)[C@@H]1CCC(=O)N1)C(=O)N[C@H](C)C(=O)N[C@H](Cc1ccccc1)C(=O)O) [pE-R-P-R-L-a-F-K-G-P-nle-a-f-OH]	3.1 nM
[pGlu]RPRL[dA][Aib]KGP[dNle][dA][dF]-OH (SMILES CCCC[C@@H](NC(=O)[C@@H]1CCCN1C(=O)CNC(=O)[C@H](CCCCN)NC(=O)C(C)(C)NC(=O)[C@@H](C)NC(=O)[C@H](CC(C)C)NC(=O)[C@H](CCCNC(=N)N)NC(=O)[C@@H]1CCCN1C(=O)[C@H](CCCNC(=N)N)NC(=O)[C@@H]1CCC(=O)N1)C(=O)N[C@H](C)C(=O)N[C@H](Cc1ccccc1)C(=O)O) [pE-R-P-R-L-a-Aib-K-G-P-nle-a-f-OH]	2.1 nM

Value of measured hAPJ Ca^2+ Flux EC50 for the entry [pGlu]RPR[2Nal][dA]HKGP[dNle][dA][dF]-OH (SMILES CCCC[C@@H](NC(=O)[C@@H]1CCCN1C(=O)CNC(=O)[C@H](CCCCN)NC(=O)[C@H](Cc1c[nH]cn1)NC(=O)[C@@H](C)NC(=O)[C@H](Cc1ccc2ccccc2c1)NC(=O)[C@H](CCCNC(=N)N)NC(=O)[C@@H]1CCCN1C(=O)[C@H](CCCNC(=N)N)NC(=O)[C@@H]1CCC(=O)N1)C(=O)N[C@H](C)C(=O)N[C@H](Cc1ccccc1)C(=O)O) [pE-R-P-R-(2-Nal)-a-H-K-G-P-nle-a-f-OH] : 69.2 nM
